- system tested: T1, FcRL3, overexpressed on 3T3 cells (UniProt Q96P31 18-734, limits assumed)
- T1 construct: whole, on cells
- T1 sequence (looked up): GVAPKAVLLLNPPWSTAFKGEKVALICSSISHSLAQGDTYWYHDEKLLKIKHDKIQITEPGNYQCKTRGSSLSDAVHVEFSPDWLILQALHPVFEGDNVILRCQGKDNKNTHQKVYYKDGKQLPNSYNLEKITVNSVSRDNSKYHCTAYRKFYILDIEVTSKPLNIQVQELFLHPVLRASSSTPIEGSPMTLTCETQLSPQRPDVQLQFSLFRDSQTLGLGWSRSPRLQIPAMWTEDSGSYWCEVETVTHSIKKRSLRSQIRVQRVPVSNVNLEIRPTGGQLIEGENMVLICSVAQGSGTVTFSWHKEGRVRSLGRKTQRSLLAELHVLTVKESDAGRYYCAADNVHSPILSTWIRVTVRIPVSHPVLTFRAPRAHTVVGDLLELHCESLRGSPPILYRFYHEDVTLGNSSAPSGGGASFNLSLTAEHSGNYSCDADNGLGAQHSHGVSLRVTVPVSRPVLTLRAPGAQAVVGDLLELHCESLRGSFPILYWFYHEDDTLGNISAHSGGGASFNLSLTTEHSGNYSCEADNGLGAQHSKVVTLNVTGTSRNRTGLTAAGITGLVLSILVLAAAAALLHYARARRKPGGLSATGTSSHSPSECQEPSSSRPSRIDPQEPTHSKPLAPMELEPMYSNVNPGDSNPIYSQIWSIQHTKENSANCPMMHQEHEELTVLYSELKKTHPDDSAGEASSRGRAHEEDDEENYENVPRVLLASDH
- assay notes: phage clone on 3T3-FcRL3 cells
endpoint name: binding result

INSERT INTO assay_data (binder, endpoint_name, result) VALUES
  ('ET200-106 (scFv, screened as phage clone; entry is VL-linker-VH-His tag-HA tag) scFv: SYELTQPPAASGTPGQRVTISCSGGVSNIGSGALNWYQQLPGTAPKLLIYSYNQRPSGVSDRFSGSRSATSASLAISGLQSEDEADYYCATWDDSVNGWVFGGGTKLTVLGSRGGGGSGGGGSGGGGSLEMAEVQLVESGAEVKKPGDSVKVSCKPSGYNFLNYGINWVRQAPGQGLEWMGWISTYTGNTNYAQKLQGRVTFTTDTSTSTAYMEMRSLRSDDTAVYYCARQQGGGWYDVWGQGTLVTVSSTSGQAGQHHHHHHGAYPYDVPDYAS', 'binding result', 'no binding'),
  ('ET200-024 (scFv, screened as phage clone; entry is VL-linker-VH-His tag-HA tag) scFv: NFMLTQPHSVSESPGKTVTISCTGSSGSIASNYVQWYQQRPGSAPTTVIYEDNQRPSGVPDRFSGSIDSSSNSASLTISGLKTEDEADYYCQSYDSSNLWVFGGGTKLTVLGSRGGGGSGGGGSGGGGSLEMAQMQLVQSGAEVKKPGSSVKVSCKASGGTFSSYAISWVRQAPGQGLEWMGGIIPIFGTANYAQKFQGRVTITADESTSTAYMELSSLRSEDTAVYYCARYNYYYYDSWGQGTLVTVSSTSGQAGQHHHHHHGAYPYDVPDYAS', 'binding result', 'no binding');
